Test system: Hs-578T
ASSAY_PROTOCOL: NCI tumour cell line growth inhibition, 48 h
The source made the active and inactive calls. No stated cut-off is given here; in the data, active = GI50 up to about 1.1 µM and inactive = higher.
Each item that follows carries a reported GI50.
MEASURED_METRIC: GI50

COc1cc(C[C@H]2c3cc(OC)c(OC)cc3CCN2C)c(Oc2cc3c(cc2OC)-c2c(OC)c(OC)cc4c2[C@H](C3)N(C)CC4)cc1OC
2.99 µM (inactive)
CC(=O)C1=C(C)N(c2ccc(C)cc2)C2(O)C=CC(=O)C3C(=O)N(c4ccccc4)C(=O)C132 (stereo not drawn)
29.7 µM (inactive)
COC(=O)c1c(O)ccc2c1c1c(n2Cc2ccccc2)C(=O)c2ccccc2C1
86.5 µM (inactive)
CCOP(=O)(C=C=C1CCC2[C@@H]3CCc4cc(OC)ccc4C3CC[C@]12C)OCC (stereo partly drawn)
20.5 µM (inactive)
COC(=O)/C=C1/OC(c2ccc(Br)cc2)=C(Br)C1=O
8.38 µM (inactive)
N/C(CSCCSC/C(N)=N/O)=N\O
> 100 µM (inactive)
O=C(/C=C/c1ccc(Cl)cc1)Oc1ccc(/C=C2\CCCCC2=O)cc1
> 100 µM (inactive)
CC1CC(C)C2=NOS3=C2C1=NO3 (stereo not drawn)
> 100 µM (inactive)

----------
Tested on: SF-295
ASSAY_PROTOCOL: NCI tumour cell line growth inhibition, 48 h
Active and inactive are the calls of the source. Cut-off read from the data, not from the text of the source: active = GI50 up to about 1.1 µM and inactive = higher.
Outcome codes: active, inactive

CCN(CC)C(=S)Oc1cc2oc(=O)cc(C)c2cc1Cl
inactive
CC(C)(CO)CNc1nc(N)nc(Cl)c1/C=N/O
inactive
C=CC1(O)CCCC=C1COCc1ccccc1 (stereo unspecified)
inactive
CN1CCc2c(sc3ncn(Nc4ccc(Cl)cc4)c(=N)c23)C1
inactive
COc1ccc(C(=O)c2[nH]c(Nc3cc(C)ccn3)c(C(=S)Nc3ccccc3)c2N)cc1
inactive
CCN1CCC(CNC(=O)c2ccc(N)cc2)N1CC (stereo unspecified)
inactive
CN(Cc1cnc2nc(N)nc(N)c2n1)c1ccc(C(=O)N[C@@H](CCC(=O)O)C(=O)O)cc1 [METHOTREXATE]
active
COc1cc2c(/C=C3/C(=O)Nc4cc(C)c(O)cc43)c(Cl)[nH]c2cc1C
inactive
c1ccc(Nc2nnc(CSc3nc(-c4ccccc4)c(-c4ccccc4)[nH]3)s2)cc1
inactive
c1cc(CN2CCNCCNCCNCC2)cc(CN2CCNCCNCCNCC2)c1
inactive
c1cc(C2N3CCCN2CC3)ccn1 (stereo unspecified)
inactive

----------
Test system: DMS-114
ASSAY_PROTOCOL: NCI tumour cell line growth inhibition, 48 h
Activity calls are given as the source filed them. Rule as the data show it: active = GI50 up to about 1.1 µM and inactive = higher.
Outcome codes: active, inactive

CC(=O)NNc1nc(C)c(C(=O)/C=C/c2ccc(Cl)c(Cl)c2)s1
inactive
O=c1[nH]cc(C(F)(C(F)(F)F)C(F)(F)F)c(=O)[nH]1
inactive
CCc1c(OC(C)=O)c2c(NC3OC(COC(C)=O)C(OC(C)=O)C(OC(C)=O)C3OC(C)=O)nc(SC)nc2oc1=O (stereo unspecified)
inactive
Cc1ccccc1-n1c(=S)[nH]c2c(sc(=O)n2-c2ccccc2C)c1=O
inactive
CC[n+]1c(/C=C/c2cc(C(=O)OC)n3c2sc2ccccc23)sc2ccccc21
inactive
COc1cc(C[C@H]2c3cc(OC)c(OC)cc3CCN2C)c(Oc2cc3c(cc2OC)-c2c(OC)c(OC)cc4c2[C@H](C3)N(C)CC4)cc1OC
inactive
COc1cc(NS(C)(=O)=O)ccc1Nc1c2ccccc2nc2ccccc12
active
Cc1ccc(/N=N/C2S/C(=C(\C#N)c3nc4ccccc4[nH]3)N(c3ccccc3)C2=O)cc1 (stereo unspecified)
inactive
C=CC1(CC)/C(=N\O)C(CC)(CC)C(=O)N1O (stereo unspecified)
inactive
NC(=O)c1csc(C2O[C@@H](COP(=O)(O)OP(=O)(O)OC[C@H]3OC(n4cnc5c(N)ncnc54)[C@H](O)[C@@H]3O)[C@H](O)[C@@H]2O)n1 (stereo partly specified)
inactive
COC(=O)C1=C(C=O)C2C=CC1C2 (stereo unspecified)
inactive
